Data provenance: PubChem BioAssay AID588774

test: competitive ABPP of pPAFAH versus proteome hydrolases – biochemical, gel-based, FP-Rh fluorescence, complex proteome, SAR compounds, selectivity assay for pPAFAH inhibitor project, SAR follow-up (AID 588774); conditions: FAAH, anti-targets inhibited, at 10 µM
property-name: anti-target count

Answered cases to consult:
Sure, the documented anti-target count for Cc1cc(N2CCN(C(=O)n3ncc(-c4ccc(OC(F)(F)F)cc4)n3)CC2)c2ccccc2n1 is 9

Sure, the documented anti-target count for O=C(N1CCOCC1)n1oc2cc(Cl)ccc2c1=O is 6

Sure, the documented anti-target count for Cc1cc(N2CCN(C(=O)n3oc4cc(Cl)ccc4c3=O)CC2)c2ccccc2n1 is 3

I. COc1ccc(-c2cnn(C(=O)N3CCN(c4cc(C)nc5ccccc45)CC3)n2)cc1
II. Cc1cc(N2CCN(C(=O)Oc3noc4cc(Cl)ccc34)CC2)c2ccccc2n1
Among I and II , which shows a numerically higher anti-target count result? Your answer should be the label attached to the chosen record.
I
(I: 8, II: 4)

1. Cc1cc(N2CCN(C(=O)Oc3ccc(C(F)(F)F)cc3)CC2)c2ccccc2n1
2. Cc1cc(N2CCN(C(=O)Oc3ccc(C4CCCCC4)cc3)CC2)c2ccccc2n1
// which entry reports the smaller anti-target count, 1 or 2 ? Your answer should be the label attached to the chosen record.
2
(2: 0, 1: 1)

###

test: competitive ABPP of pPAFAH versus proteome hydrolases – biochemical, gel-based, FP-Rh fluorescence, complex proteome, SAR compounds, selectivity assay for pPAFAH inhibitor project, SAR follow-up (AID 588774); conditions: LYPLA1, anti-targets inhibited, at 10 µM
property-name: anti-target count

Sure, the documented anti-target count for Cc1cc(N2CCN(C(=O)Oc3ccc([N+](=O)[O-])cc3)CC2)c2ccccc2n1 is 2

Sure, the documented anti-target count for Cc1cc(N2CCN(C(=O)n3ncc(-c4ccc(Cl)c(Cl)c4)n3)CC2)c2ccccc2n1 is 8

Sure, the documented anti-target count for O=C(N1CCOCC1)n1oc2cc(Cl)ccc2c1=O is 6

P. Cc1cc(N2CCN(C(=O)n3ncc(-c4ccc(OC(F)(F)F)cc4)n3)CC2)c2ccccc2n1
Q. O=C(Oc1noc2cc(Cl)ccc12)N1CCCCC1
R. Cc1cc(N2CCN(C(=O)n3oc4cc(Cl)ccc4c3=O)CC2)c2ccccc2n1
S. Cc1cc(N2CCN(C(=O)Oc3ccc(-n4cccc4)cc3)CC2)c2ccccc2n1
Rank entries according to their anti-target count, from the largest number down. Sort the labels as requested; that list is your answer.
P, R, Q, S
(P: 9, R: 3, Q: 2, S: 0)

###

assay: competitive ABPP of pPAFAH versus proteome hydrolases – biochemical, gel-based, FP-Rh fluorescence, complex proteome, SAR compounds, selectivity assay for pPAFAH inhibitor project, SAR follow-up (AID 588774); conditions: ABHD3, anti-targets inhibited, at 10 µM
property-name: anti-target count

P. Cc1cc(N2CCN(C(=O)n3ncc(-c4ccccc4)n3)CC2)c2ccccc2n1
Q. Cc1cc(N2CCN(C(=O)n3oc4cc(Cl)ccc4c3=O)CC2)c2ccccc2n1
R. Cc1cc(N2CCN(C(=O)Oc3ccc(-c4ccc(Br)cc4)cc3)CC2)c2ccccc2n1
S. Cc1cc(N2CCN(C(=O)Oc3ccc(C(F)(F)F)cc3)CC2)c2ccccc2n1
Method: rank(items above, key=anti-target count, ascending=True) Sort the labels as requested; that list is your answer.
R, S, Q, P

I. COc1ccc(-c2cnn(C(=O)N3CCN(c4cc(C)nc5ccccc45)CC3)n2)cc1
II. Cc1cc(N2CCN(C(=O)Oc3ccc(C4CCCCC4)cc3)CC2)c2ccccc2n1
// which entry reports the smaller anti-target count, I or II ? Your answer should be the label attached to the chosen record.
II
(II: 0, I: 8)
